Target: T1, H2L7-K12V/R83T
T1 construct: Variant of H2L7 with changes in VH only
T1 sequence (VH, as listed by the source, chain 1 of 2): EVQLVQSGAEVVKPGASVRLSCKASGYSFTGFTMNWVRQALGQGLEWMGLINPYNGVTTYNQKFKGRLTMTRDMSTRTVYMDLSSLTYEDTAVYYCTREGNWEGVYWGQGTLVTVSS
T1 sequence (VL, as listed by the source, chain 2 of 2): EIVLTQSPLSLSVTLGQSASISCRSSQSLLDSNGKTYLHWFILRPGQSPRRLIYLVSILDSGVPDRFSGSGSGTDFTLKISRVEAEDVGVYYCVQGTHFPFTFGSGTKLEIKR
Experiment: inhibition ELISA as in Example 6: antigen in solution titrated, antibody fixed, AβpE3-40 coat

[
  {
    "BINDER": "EVHHQKLVFFAEDVGSNK (peptide, UniProt P05067 682-699, looked up, pyroglutamate (pE) at position 11, the N-terminus, range 11-28; The range counts on Aβ numbering, not on APP) [AβpE11-28 monomer]",
    "IC50": "> 12.5 µM"
  }
]

Data provenance is patent US20260217804A1.
